Give sfGFP reporter fluorescence for every item shown.
B1: library; a variant is named by its letters at X, in order (parent)
chain: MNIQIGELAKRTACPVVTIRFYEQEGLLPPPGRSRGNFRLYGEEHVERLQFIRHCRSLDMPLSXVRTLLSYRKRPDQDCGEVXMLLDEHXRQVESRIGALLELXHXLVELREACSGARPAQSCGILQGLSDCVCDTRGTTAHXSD

# Variants of: B1
# EXPERIMENT_SUMMARY: sfGFP reporter fluorescence (15 h) (µM FITC); higher = stronger transcriptional activation
# MEASUREMENT_SETUP: library round: Round 3b; ligand: 30 µM Zn
Number, no unit, nothing else.

Incoming: Reported sfGFP reporter fluorescence for KFATAP : what is it?
Outgoing: 0.0524

Incoming: Ok, now KIAKEP
Outgoing: 0.051

Incoming: And what about the variant DIATHR ?
Outgoing: 0.0456

Incoming: Moving on to KFATER
Outgoing: 0.0571

Incoming: What would you report for KFATAT ?
Outgoing: 0.056

Incoming: How about this variant: DFITET
Outgoing: 0.0433

Incoming: Now consider KFATEP and answer again.
Outgoing: 0.0564

Incoming: Do the same for KFITAT please
Outgoing: 0.0678

Incoming: How about KIAVAT ?
Outgoing: 0.0576

Incoming: // same read-out, input: KIIKET
Outgoing: 0.0466

Incoming: Now consider DNATAT .
Outgoing: 0.059
